Assayed Target: human GLP-1R (Homo sapiens, UniProt P43220, G168S)
Sequence (P43220 24-463 G168S): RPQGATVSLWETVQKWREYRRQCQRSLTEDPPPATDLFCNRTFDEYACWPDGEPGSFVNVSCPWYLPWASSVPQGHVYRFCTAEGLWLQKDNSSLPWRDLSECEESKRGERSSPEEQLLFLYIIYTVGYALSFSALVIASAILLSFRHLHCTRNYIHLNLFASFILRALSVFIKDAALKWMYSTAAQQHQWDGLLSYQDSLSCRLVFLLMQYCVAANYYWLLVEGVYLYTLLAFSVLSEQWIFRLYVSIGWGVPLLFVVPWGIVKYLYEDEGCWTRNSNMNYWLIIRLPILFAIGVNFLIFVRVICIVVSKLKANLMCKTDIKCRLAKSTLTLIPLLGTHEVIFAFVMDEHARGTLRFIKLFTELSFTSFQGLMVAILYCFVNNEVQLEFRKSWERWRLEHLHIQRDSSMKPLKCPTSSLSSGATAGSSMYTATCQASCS
Procedure Details: CHO GLP-1R Clone H6 cAMP HTRF agonist assay (Assay 1, high receptor density)
Assay type: cell-based
Experimental Setup: CHO GLP-1R clone H6, cAMP HTRF; geometric mean
pEC50: −log10 of the molar value.
Measured Attribute: pEC50

Compound: CN1CC[C@@H]1Cn1c(CN2CCC(c3cccc(OCc4ccc(Cl)cc4F)n3)CC2)nc2ccc(C(=O)O)cc21 (stereo in doubt) [Compound 275B]
Meas Value: < 4.70
//
Compound: C[C@H]1CN(c2cccc(OCc3ccc(C#N)cc3F)n2)CCN1Cc1nc2ccc(C(=O)O)cc2n1C[C@H]1CCOC1 [Compound 267B]
Meas Value: < 4.72
//
Compound: O=C(O)c1ccc2nc(CN3CCC(c4cccc(OCc5ccc(Cl)cc5F)n4)CC3)n(Cc3cnoc3)c2c1 [Compound 270B]
Meas Value: < 4.70
//
Compound: Cn1cnc(CCn2c(CN3CCC(c4cccc(OCc5ccc(Cl)cc5F)n4)CC3)nc3ccc(C(=O)O)cc32)c1 [Compound 276B]
Meas Value: < 4.70
//
Compound: O=C(O)c1ccc2nc(CN3CCC(c4cccc(OCc5ccc(Cl)cc5F)n4)CC3)n([C@@H]3CCOC3)c2c1 [Compound 268B]
Meas Value: < 4.70
//
Compound: O=C(O)c1ccc2nc(CN3CCC(c4cccc(OCc5ccc(Cl)cc5F)n4)CC3)n([C@H]3CCOC3)c2c1 [Compound 272B]
Meas Value: < 4.70
//
Compound: CCc1noc(Cn2c(CN3CCC(c4cccc(OCc5ccc(Cl)cc5F)n4)CC3)nc3ccc(C(=O)O)cc32)n1 [Compound 264B]
Meas Value: < 5.00
//
Compound: CC1(Cn2c(CN3CCC(c4cccc(OCc5ccc(Cl)cc5F)n4)CC3)nc3ccc(C(=O)O)cc32)CCO1 (centres unmarked) [Compound 265B]
Meas Value: < 4.82

* * *

Assayed Target: human GLP-1R (Homo sapiens, UniProt P43220, G168S)
Procedure Details: CHO GLP-1R Clone H6 cAMP HTRF agonist assay (Assay 1, high receptor density)
Assay type: cell-based
Experimental Setup: CHO GLP-1R clone H6, cAMP HTRF; geometric mean
pEC50: −log10 of the molar value.
Measured pEC50 values are reported for all entries that follow.

Molecule: O=C(O)c1ccc2nc(CN3CCC(c4cccc(OCc5ccc(Cl)cc5F)n4)CC3)n(C[C@H]3CCOC3)c2c1 [Compound 121B]
pEC50: < 4.70
//
Molecule: COCCn1c(CN2CCN(c3nc(OCc4ccc(Cl)cc4F)ccc3F)C[C@@H]2C)nc2ccc(C(=O)O)cc21 [Compound 180B]
pEC50: < 4.77
//
Molecule: CCn1cncc1Cn1c(CN2CCC(c3cccc(OCc4ccc(C#N)cc4F)n3)CC2)nc2ccc(C(=O)O)nc21 [Compound 273B]
pEC50: < 4.70
//
Molecule: O=C(O)c1ccc2nc(CN3CCC(c4cccc(OCc5ccc(Cl)cc5F)n4)CC3)n(Cc3ncon3)c2c1 [Compound 271B]
pEC50: < 4.70
